# Tested on: A549
# RUN_DESCRIPTION: Cytotoxicity against human A549 cells after 48 hrs by MTT assay
# Format: functional, cell-based
# CONDITIONS_USED: A549, 48 h
pIC50: −log10 of the molar value.
READOUT_LABEL: pIC50

Record excerpt, results attached:
| SMILES_STRING | pIC50 |
| --- | --- |
| C=C(C)[C@@H]1CC[C@H](C)[C@H](CCC(C)=O)C(=O)C1 | < 4.30 |
| C=C(C)[C@@H]1CCC(C)=C2C(=O)C=C(C)[C@@H]2C1 | < 4.30 |
| C=C(C)[C@@H]1CC[C@H](C)[C@]23CC[C@](C)(O)[C@@]2(C1)O3 | < 4.30 |
| C=C(C)[C@@H]1CC[C@H](C)[C@@]23O[C@]2(C1)[C@@H](C)C[C@H]3O | < 4.30 |
| C=C(C)[C@@H]1CC[C@H](C)[C@@H](CCC(C)=O)C(=O)C1 | < 4.30 |
| C=C(C)[C@@H]1C[C@@H](O)C(=C)C2=CC[C@H](C)[C@@H]2C1 | < 4.30 |
| C=C(C)[C@@H]1CC[C@@](C)(O)C2=C[C@@H](O)[C@H](C)[C@@H]2C1 | < 4.30 |
| C=C(C)[C@@H]1CC[C@](C)(O)[C@@H]2CC[C@H](C)[C@]2(O)C1 | < 4.30 |

Okay, next one:
Q: I would be grateful if you could share the reported pIC50 for C=C(C)[C@@H]1CCC(=C)[C@]2(O)[C@@H](O)C[C@H](C)[C@@H]2C1 .
Ans: < 4.30
